B1: Twister Ribozyme (parent)
chain: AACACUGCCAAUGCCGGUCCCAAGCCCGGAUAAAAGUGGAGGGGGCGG

Variants of: B1
experiment.notes: self-cleavage, relative activity (ratio to wild type); higher = more cleavage; co-transcriptional
property.name: self-cleavage
Keep the answer to the number alone.

Fill in: self-cleavage of GACACUGCCAAUGCCGGUCCCAAGCCCGGAUAAAAGUUGAGGGGGCGG [A1G G38U] is ___ 0.211

May I ask what self-cleavage has been recorded for AAUACUGGCAAUGCCGGUCCCAAGCCCGGAUAAAAGUGGAGGGGGCGG [C3U C8G] ? 0.0577

Give its self-cleavage value. Item: AGCACUGCCAAUGCCGGUCCCAAGCCCGGAUAAAAGUGGUGGGGGCGG [A2G A40U] 0.107

# lookup: self-cleavage of AAAACUGCCAAUGCCGGUUCCAAGCCCGGAUAAAAGUGGAGGGGGCGG [C3A C19U] 0.153

I would be grateful if you could share the reported self-cleavage for AACACUGCCAAUGCCGGUACCAAGCCCGGAUAAAAGUGGAGGGGGCGA [C19A G48A] . 0.161

Need self-cleavage of AACACUGCCGAUGCCGGUCACAAGCCCGGAUAAAAGUGGAGGGGGCGG [A10G C20A] , thanks. 0.136

Query: self-cleavage; subject: AACACUGCCAAUGACGGUCCCAAGCCCGGAUAAAAGUGUAGGGGGCGG [C14A G39U] 0.198

Fill in the blank: the reported self-cleavage of AACACUGCCAAUGCCGGUCCCAAGCCCCGAUAAAAGUGGGGGGGGCGG [G28C A40G] is ____. 0.188

Which self-cleavage is reported for this variant? AGCACUGCCAAUGCCGGUCCCAAGCCCGGAUAAAAGUGGAGGGGGCGA [A2G G48A] 0.217

# get_value(readout='self-cleavage', item= AACACUGCCAAUGCCGGUCCCAAGCCCGGAUAAGAGUGUAGGGGGCGG [A34G G39U] ) 0.102

Consider the variant shown here: AACACUGCCAAUGCCAGUCCCAAGCCCGGAUAAAAGUGGAGGUGGCGG [G16A G43U] What is its recorded self-cleavage? 0.321

Sample AACACUGCCAAUGCCGGUCCCAAUCCCGGAUAAAAGUCGAGGGGGCGG [G24U G38C] — what was its self-cleavage? 0.103

Fill blank: measured self-cleavage of the variant AACACUGCCGAUGCCGGUCCCAAGCCCGGAUAAUAGUGGAGGGGGCGG [A10G A34U] is ____. 0.959

# self-cleavage lookup, item AACACUGCCAAUGCCGGUCCCAAGCCCGGAUAAAAAUGGAGGUGGCGG [G36A G43U] 0.147

Please look up its self-cleavage: AACACUGCCAAUGCCAGUCCCAAGCCCGGAAAAAAGUGGAGGGGGCGG [G16A U31A] 0.958

Using the record for AACAAUGCCAAUGCCGGUCCCAAGCCCGGAUAAAAGUGGAAGGGGCGG [C5A G41A] , report its self-cleavage. 0.107

Field request: self-cleavage | item: ACCACUGCCAAUGCCGGUCCCAAGCCCGAAUAAAAGUGGAGGGGGCGG [A2C G29A] 0.0998

I am curious: what self-cleavage value has been reported for AACACUGCCAAUGCCGGUUUCAAGCCCGGAUAAAAGUGGAGGGGGCGG [C19U C20U] ? 0.327

Please report the recorded self-cleavage for AACACAGCCAAUGCCGGUCCCAAGCCCGGAUUAAAGUGGAGGGGGCGG [U6A A32U] . 0.862

// returns reported self-cleavage for input ACCACUGCGAAUGCCGGUCCCAAGCCCGGAUAAAAGUGGAGGGGGCGG [A2C C9G] 0.0449

Item AACACUGCCAAUGCCGGUCCCAAGCCCGGAUAAAAGUGGAUGGGUCGG [G41U G45U] has what recorded self-cleavage? 0.25

I am curious: what self-cleavage value has been reported for AACACGGCCAAUGCCGGUCCCAAGCCCGGAUAAAAUUGGAGGGGGCGG [U6G G36U] ? 0.0341

Data origin, for the record: the RNAGym collection of RNA variant scans (doi:10.7554/elife.80360)
